TESTED SYSTEM: T1, 4H2233-bN
T1 chain: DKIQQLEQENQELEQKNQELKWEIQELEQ
PROTOCOL NOTES: two-hybrid library CCNG1;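 further: natural log of median RNA to DNA barcode read ratio; higher means stronger binding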

{"BINDER": "DEIQQLEQENQELEQKIQELEWKIQELKQ [4H166-bN]", "interaction score": 0.155}
{"BINDER": "DKIQQLEQEIQELKQKNQELEWEIQELKQ [4H2162-bN]", "interaction score": -0.887}
{"BINDER": "DKIQQLEQENQELEQKNQELKWEIQELEQ [4H2233-bN]", "interaction score": -1.12}
{"BINDER": "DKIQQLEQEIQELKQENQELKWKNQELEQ [4H2143-bN]", "interaction score": -1.37}
